# studySystem: PCSK9Δhelix (Homo sapiens)
# Construct: Human PCSK9 construct M1-Q692 with an engineered TEV site (residue deletion Y166, R167); made in house; host or cells: CHO
# Sequence (Q8NBP7 with tags, fused parts or gaps limits assumed): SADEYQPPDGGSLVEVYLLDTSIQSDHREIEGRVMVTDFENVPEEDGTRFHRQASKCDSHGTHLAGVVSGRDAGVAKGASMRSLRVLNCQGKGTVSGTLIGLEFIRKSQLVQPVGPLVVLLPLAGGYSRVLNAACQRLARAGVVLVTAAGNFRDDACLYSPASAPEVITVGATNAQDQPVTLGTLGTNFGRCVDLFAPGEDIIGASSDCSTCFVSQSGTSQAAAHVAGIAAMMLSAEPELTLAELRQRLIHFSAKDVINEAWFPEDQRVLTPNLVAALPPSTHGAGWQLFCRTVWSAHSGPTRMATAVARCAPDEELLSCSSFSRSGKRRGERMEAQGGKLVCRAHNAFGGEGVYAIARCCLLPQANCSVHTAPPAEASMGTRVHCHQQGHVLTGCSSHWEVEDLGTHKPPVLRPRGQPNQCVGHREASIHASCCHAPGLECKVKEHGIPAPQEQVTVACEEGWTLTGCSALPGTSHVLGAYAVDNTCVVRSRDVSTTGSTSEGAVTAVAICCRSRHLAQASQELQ
# Sequence (Q8NBP7 31-152 partner limits assumed): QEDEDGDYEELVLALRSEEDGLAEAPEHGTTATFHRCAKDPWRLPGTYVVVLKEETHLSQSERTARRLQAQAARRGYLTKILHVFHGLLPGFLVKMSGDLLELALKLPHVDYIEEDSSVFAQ
# runDescription: PCSK9Δhelix/Ab20 TR-FRET binding assay
# testParameters: TR-FRET, Example 7; read-out: PCSK9Δhelix/Ab20 IC50
Bridge positions count the residues as written; N and C are the ends. Peptide text beside a SMILES is read from it. * marks the point of attachment. Pentanoyl = CCCCC(=O)*
readoutLabel: pIC50
Scale explanation: pIC50 corresponds to minus log10 of a concentration expressed in moles per litre.

Record request: pIC50 value, item CCCCC(=O)N[C@@H](Cc1c[nH]c2ccccc12)C(=O)N[C@@H](CC(N)=O)C(=O)N[C@@H](CC(C)C)C(=O)N[C@H](C(=O)N[C@@H](CCCNC(=N)N)C(=O)N[C@H](C(=O)NCC(=O)N[C@@H](CC(C)C)C(=O)N[C@@H](CC(C)C)C(=O)N[C@@H](CCCNC(=N)N)C(N)=O)[C@@H](C)CC)C(C)C [Compound 111] (Pentanoyl-WNLVRIGLLR-NH2) 5.31

Record request: pIC50 value, item CC[C@H](C)[C@@H]1NC(=O)[C@H](CCCNC(=N)N)NC(=O)[C@H](CCCCN)NC(=O)[C@H](CC(C)C)NC(=O)[C@H](CC(N)=O)NC(=O)[C@H](Cc2c[nH]c3ccccc23)NC(=O)[C@@H]2CCCN2C(=O)[C@H](CC(C)C)NC(=O)[C@H](CCCNC(=N)N)NC(=O)[C@@H](NC(C)=O)CSSC[C@@H](C(N)=O)NC(=O)[C@@H]2CCCN2C(=O)[C@H](CC(C)C)NC(=O)CNC1=O [Compound 67] (Ac-CRLPWNLKRIGLPC-NH2; disulfide 1-14) 6.15
